Tested on: U2OS
Experiment: Multiplex assay against U2OS
Assay type: toxicity, cell-based
Settings: human, 48 h, 1 µM, compound concentration 1 uM, replicate 1
# if measured Population Tubulin-Different-Phenotype (%) < 8%: condition met  # else: condition not met

For orientation, consider the following solved cases.
>>> classassignment("Nc1ccc(C(=O)Nc2cccc(-c3nc(N4CCOCC4)c4oc5ncccc5c4n3)c2)cn1")
"condition not met"
>>> classassignment("CCCn1c(=O)c2[nH]c(C34CC5CC(CC3C5)C4)nc2n(CCC)c1=O [ROLOFYLLINE]")
"condition not met"
>>> classassignment("CC(C)N1CCC(C)(C)c2cc(C#Cc3ccc(C(=O)O)cc3)ccc21")
"condition not met"
>>> classassignment("Cc1nc(Cc2cccc(C(F)(F)F)c2)sc1-c1ccc(C(N)=O)nc1 [TP-024n]")
"condition met"
>>> classassignment("Cl.Cl.Nc1ncnc2c1c(-c1cccc(OCc3ccccc3)c1)cn2[C@H]1C[C@@H](CN2CCC2)C1")
"condition not met"
>>> classassignment("COc1ccc(NS(=O)(=O)c2sc3ccc(Cl)cc3c2C)cc1N1CCNCC1.Cl")
"condition met"

I wonder whether O=C(O)c1ccc2cc(-c3ccc(O)c(C45CC6CC(CC(C6)C4)C5)c3)ccc2c1 [O-DEMETHYLATED ADAPALENE] has Population Tubulin-Different-Phenotype (%) below 8%. Can you tell?
condition not met

----------
Tested on: HEK-293T
Test: Multiplex assay against HEK293T
Type: toxicity, cell-based
Details: human, 48 h, 1 µM, compound concentration 1 uM, replicate 1
quantityMeasured: Population Fragmented Nuclei (%)
Unit % implied. Number only.

>>> testvalue("Cc1nc(Cc2cccc(C(F)(F)F)c2)sc1-c1ccc(C(N)=O)nc1 [TP-024n]")
12
>>> testvalue("Cl.Cl.Nc1ncnc2c1c(-c1cccc(OCc3ccccc3)c1)cn2[C@H]1C[C@@H](CN2CCC2)C1")
20
>>> testvalue("CCc1cc2c(cc1CC)CC(NC[C@H](O)c1ccc(O)c3[nH]c(=O)ccc13)C2")
12
>>> testvalue("CCn1c(-c2nonc2N)nc2cnc(Oc3cccc(NC(=O)c4ccc(OCCN5CCOCC5)cc4)c3)cc21 [GSK-269962A]")
18

Pending compound:
Report its Population Fragmented Nuclei (%) with HEK-293T as the test system: O=C(O)c1ccc2cc(-c3ccc(O)c(C45CC6CC(CC(C6)C4)C5)c3)ccc2c1
10

----------
Test system: U2OS
Assay: Multiplex assay against U2OS
Type: toxicity, cell-based
Settings: human, 12 h, 10 µM, compound concentration 10 uM, replicate 1
The compounds listed here are annotated with their Population Healthy Nuclei (%).
Unit % implied. Number only.

>>> testvalue("CC(C)(C)c1cnc(CSc2cnc(NC(=O)C3CCNCC3)s2)o1")
61

Give recorded Population Healthy Nuclei (%). CNC(=O)c1cc(Oc2ccc(NC(=O)Nc3cc(C(C)(C)C)nn3-c3ccc4ncccc4c3)c(F)c2)ccn1
63

Give recorded Population Healthy Nuclei (%). COc1cc2c(Nc3ccc(NC(=O)c4ccccc4)cc3)ncnc2cc1OCCCN1CCOCC1
86

Give recorded Population Healthy Nuclei (%). CCOc1cc2ncc(C#N)c(Nc3ccc(OCc4cccc(F)c4)c(Cl)c3)c2cc1NC(=O)/C=C/CN(C)C
69

Give recorded Population Healthy Nuclei (%). Cc1cn(-c2cc(NC(=O)c3ccc4c(c3)CN(c3cncnc3)C[C@@H]4C)cc(C(F)(F)F)c2)cn1
84

Give recorded Population Healthy Nuclei (%). N#Cc1cnc(Nc2cc(NC[C@H]3CNCCO3)c(C(F)(F)F)cn2)cn1
87

Give recorded Population Healthy Nuclei (%). CC(C)N1CCC(C)(C)c2cc(C#Cc3ccc(C(=O)O)cc3)ccc21
43

----------
Test system: HEK-293T
Assay: Multiplex assay against HEK293T
Format: toxicity, cell-based
Conditions: human, 24 h, 10 µM, compound concentration 10 uM, replicate 1
Classification by Population Mitochondria Different-Phenotype (%) follows these ranges: bin A (below 40%), bin B (40% to below 80%), bin C (80% or more)

For orientation, consider the following solved cases.
>>> classassignment("Cl.Cl.NC1(c2ccc(-c3nc4ccn5c(=O)[nH]nc5c4cc3-c3ccccc3)cc2)CCC1")
"bin A"
>>> classassignment("CCn1c(-c2nonc2N)nc2cnc(Oc3cccc(NC(=O)c4ccc(OCCN5CCOCC5)cc4)c3)cc21 [GSK-269962A]")
"bin C"
>>> classassignment("CCc1cc2c(cc1CC)CC(NC[C@H](O)c1ccc(O)c3[nH]c(=O)ccc13)C2")
"bin B"

Form field 'band' for Cc1cn(-c2cc(NC(=O)c3ccc4c(c3)CN(c3cncnc3)C[C@@H]4C)cc(C(F)(F)F)c2)cn1
bin A

Form field 'band' for CN(C)C/C=C/C(=O)Nc1cc2c(Nc3ccc(F)c(Cl)c3)ncnc2cc1O[C@H]1CCOC1.O=C(O)/C=C\C(=O)O.O=C(O)/C=C\C(=O)O [AFATINIB DIMALEATE]
bin B

Form field 'band' for Nc1ccc(C(=O)Nc2cccc(-c3nc(N4CCOCC4)c4oc5ncccc5c4n3)c2)cn1
bin C

Form field 'band' for O=C(O)c1ccc2cc(-c3ccc(O)c(C45CC6CC(CC(C6)C4)C5)c3)ccc2c1
bin A

----------
System: Fibroblast
Experiment: Multiplex assay against human fibroblast
Type: toxicity, cell-based
Conditions: 24 h, 1 µM, compound concentration 1 uM, replicate 1
quantityMeasured: Population Mitotic Cells (%)
Unit % implied. Number only.

>>> testvalue("CNC(=O)c1cc(Oc2ccc(NC(=O)Nc3cc(C(C)(C)C)nn3-c3ccc4ncccc4c3)c(F)c2)ccn1")
16
>>> testvalue("CCOc1cc2ncc(C#N)c(Nc3ccc(OCc4cccc(F)c4)c(Cl)c3)c2cc1NC(=O)/C=C/CN(C)C")
42
>>> testvalue("c1ccc2oc(-c3csc(C4CCN(Cc5nc6ncccc6[nH]5)CC4)n3)cc2c1")
50
>>> testvalue("CC(=O)c1cc(-c2cc(C(=O)NC3CC3)ccc2C)c2ncccn12")
33

Pending molecule:
Give recorded Population Mitotic Cells (%). CC(C)N1CCC(C)(C)c2cc(C#Cc3ccc(C(=O)O)cc3)ccc21
14

----------
Test system: U2OS
Test: Incucyte cell viability with U2OS; note: filed as whole numbers so only -1 and 0 and 1 occur
Assay type: toxicity, cell-based
Details: human, 12 h, 10 µM, compound concentration 10 uM, replicate number 1, timepoint 12 hours
quantityMeasured: Growth Rate
Answer with a number only.

The cases that follow already have their Growth Rate on record.
>>> testvalue("C[C@H]1CCCN1Cc1nc2cc(NC(=O)c3ccc4cnccc4c3)ccc2[nH]1")
1
>>> testvalue("COc1cc(N2CCC(N(C)C)CC2)ccc1Nc1ncc(Cl)c(Nc2ccccc2P(C)(C)=O)n1")
0

Give recorded Growth Rate. O=C(O)c1ccc2cc(-c3ccc(O)c(C45CC6CC(CC(C6)C4)C5)c3)ccc2c1 [O-DEMETHYLATED ADAPALENE]
1

----------
The molecules listed here are annotated with their Total Cell Count.
Test system: U2OS
Assay: Multiplex assay against U2OS
Type: toxicity, cell-based
Settings: human, 24 h, 10 µM, compound concentration 10 uM, replicate 2

The cases that follow already have their Total Cell Count on record.
>>> testvalue("CC(=O)c1cc(-c2cc(C(=O)NC3CC3)ccc2C)c2ncccn12")
62
>>> testvalue("N#Cc1cnc(Nc2cc(NC[C@H]3CNCCO3)c(C(F)(F)F)cn2)cn1")
168
>>> testvalue("Cc1nc(Cc2cccc(C(F)(F)F)c2)sc1-c1ccc(C(N)=O)nc1 [TP-024n]")
60
>>> testvalue("O=C(O)c1ccc2cc(-c3ccc(O)c(C45CC6CC(CC(C6)C4)C5)c3)ccc2c1")
83
>>> testvalue("COc1cc2c(NC3CCN(C(C)C)CC3)nc(N3CCC(F)(F)CC3)nc2cc1OCCCN1CCCC1")
112
>>> testvalue("CCCn1c(=O)c2[nH]c(C34CC5CC(CC3C5)C4)nc2n(CCC)c1=O")
120
>>> testvalue("Nc1nc2c(c(N3CCNCC3)n1)CCC1=C2[C@@H]2CCCC[C@@H]2O1")
109
>>> testvalue("COc1ccc(NS(=O)(=O)c2sc3ccc(Cl)cc3c2C)cc1N1CCNCC1.Cl")
51
>>> testvalue("CCn1c(-c2nonc2N)nc2cnc(Oc3cccc(NC(=O)c4ccc(OCCN5CCOCC5)cc4)c3)cc21 [GSK-269962A]")
73
>>> testvalue("Cc1cc2c(cc1N1C(=O)c3cccc4c(CCCO)ccc(c34)C1=O)n(C)c(=O)n2C")
61

Give recorded Total Cell Count. CN(C)CCOc1ccc(-c2nc(-c3ccncc3)c(-c3ccc4c(c3)CC/C4=N\O)[nH]2)cc1
80

Give recorded Total Cell Count. Cc1cn(-c2cc(NC(=O)c3ccc4c(c3)CN(c3cncnc3)C[C@@H]4C)cc(C(F)(F)F)c2)cn1
128

----------
System: U2OS
Test: Multiplex assay against U2OS
Format: toxicity, cell-based
Details: human, 24 h, 10 µM, compound concentration 10 uM, replicate 1
quantityMeasured: Population Normal (%)
Unit % implied. Number only.

The cases that follow already have their Population Normal (%) on record.
>>> testvalue("CCCn1c(=O)c2[nH]c(C34CC5CC(CC3C5)C4)nc2n(CCC)c1=O")
89
>>> testvalue("COc1ccc(NS(=O)(=O)c2sc3ccc(Cl)cc3c2C)cc1N1CCNCC1.Cl")
92

Give recorded Population Normal (%). CCC(=O)O[C@]1(C(=O)SCF)[C@H](C)C[C@H]2[C@@H]3C[C@H](F)C4=CC(=O)C=C[C@]4(C)[C@@]3(F)[C@@H](O)C[C@@]21C [FLUTICASONE PROPIONATE]
90

Give recorded Population Normal (%). CC(C)(C)c1cnc(CSc2cnc(NC(=O)C3CCNCC3)s2)o1
90

Give recorded Population Normal (%). CCn1c(-c2nonc2N)nc2cnc(Oc3cccc(NC(=O)c4ccc(OCCN5CCOCC5)cc4)c3)cc21 [GSK-269962A]
90
